B1: FCHO1 (parent)
chain: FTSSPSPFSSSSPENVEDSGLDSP

Variants of: B1
Assay: protein stability index of a GFP-peptide fusion (GPS, HEK-293T) (PSI 1-6); higher = more stable;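 further: lentivirally expressed fusions sorted by FACS into six bins by GFP to DsRed ratio, PSI derived from sequencing read proportions per bin multiplied by bin number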
Settings: c terminus: a fixed tail appended
Measured Quantity: protein stability index

>  <Primary Sequence>
FTSSPSPFSSSSPENVQDSGLDSP [E17Q]

>  <Measured Value>
1.85

$$$$
>  <Primary Sequence>
FTSSPSPFSSSSPENVEDSGLWSP [D22W]

>  <Measured Value>
2.62

$$$$
>  <Primary Sequence>
FTSSPSPFSSSSPENVEESGLDSP [D18E]

>  <Measured Value>
1.92

$$$$
>  <Primary Sequence>
FTSSPRPFSSSSPENVEDSGLDSP [S6R]

>  <Measured Value>
2.21

$$$$
>  <Primary Sequence>
KTSSPSPFSSSSPENVEDSGLDSP [F1K]

>  <Measured Value>
5.56

$$$$
>  <Primary Sequence>
FTSSPSPFSSSSPFNVEDSGLDSP [E14F]

>  <Measured Value>
1.64

$$$$
>  <Primary Sequence>
FTSSPVPFSSSSPENVEDSGLDSP [S6V]

>  <Measured Value>
1.99

$$$$
>  <Primary Sequence>
FTSTPSPFSSSSPENVEDSGLDSP [S4T]

>  <Measured Value>
1.93

$$$$
>  <Primary Sequence>
FTSSPSPFTSSSPENVEDSGLDSP [S9T]

>  <Measured Value>
2.29

$$$$
>  <Primary Sequence>
FTASPSPFSSSSPENVEDSGLDSP [S3A]

>  <Measured Value>
2.26

$$$$
>  <Primary Sequence>
FTSSPSPFSSSSPENVEDSLLDSP [G20L]

>  <Measured Value>
2.07

$$$$

src = the supplement of paper PMC10567573
